biological target: human B1R receptor (hB1R) (Homo sapiens, UniProt P46663); construct: host or cells: CHO K1 cells; experiment: FLIPR Ca2+ assay on hB1R-transfected CHO K1 cells, antagonistic action; format: cell-based; details: CHO-K1, 10 μM test substance; agonist Lys-Des-Arg9-bradykinin 0.5 nM; % of maximum achievable inhibition; read-out: hB1R [10 μM] % inhibition
Sequence (P46663 whole entry): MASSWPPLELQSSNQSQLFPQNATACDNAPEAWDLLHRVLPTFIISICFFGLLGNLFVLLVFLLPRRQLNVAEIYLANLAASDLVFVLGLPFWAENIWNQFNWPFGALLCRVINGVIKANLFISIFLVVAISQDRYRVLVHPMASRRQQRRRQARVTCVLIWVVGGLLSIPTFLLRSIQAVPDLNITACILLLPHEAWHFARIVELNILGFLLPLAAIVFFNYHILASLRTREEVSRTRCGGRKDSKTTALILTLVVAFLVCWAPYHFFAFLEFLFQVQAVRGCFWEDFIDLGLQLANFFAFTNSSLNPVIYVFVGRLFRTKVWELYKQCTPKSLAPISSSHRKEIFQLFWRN
Let's look at some compounds and their measured inhibition at 10 µM.
Response body: numeric value in %, unit text excluded.

Known results for compounds:
Compound: COc1cc(C)c(S(=O)(=O)N2CCCC2COCC(=O)N(C)CC2CCC(Cc3ccccc3)(N3CCN(C)CC3)CC2)c(C)c1 (stereo not shown)
Tested Target: human B1R receptor (hB1R) (Homo sapiens, UniProt P46663)
inhibition at 10 µM / %: 95
--
Compound: COc1cc(C)c(S(=O)(=O)N2CCCCC2COCC(=O)N(C)CCC2CCC(c3ccccc3)(N(C)C)CC2)c(C)c1 (stereo not shown)
Tested Target: human B1R receptor (hB1R) (Homo sapiens, UniProt P46663)
inhibition at 10 µM / %: 104

Input: Please report inhibition at 10 µM for the following compound: COc1ccc(S(=O)(=O)N2CCCCC2CCOCC(=O)NC2CCC(c3ccccc3)(N(C)C)CC2)cc1 (stereo not shown)
Output: 51

Input: Give the value of inhibition at 10 µM reported for the following: Cc1cc(S(=O)(=O)N2CCCCC2CCC(=O)N2CCC(c3ccccc3)(N3CCN(c4ccncc4)CC3)CC2)c(C)cc1Cl (stereo not shown)
Output: 100
